The entries below come with measured concentration at 90 min values attached.
# RUN_DESCRIPTION: Terminal unbound brain concentration in the AHL study
# PROTOCOL_CONDITIONS: rat, in vivo, po, 10 mg/kg
Express the result in nM but write the number alone.

For the molecule O=C1c2cc(OCc3ccccc3)nn2CCN1c1ccc(F)cc1 [4x] , give its measured concentration at 90 min value. 376

Given O=C1c2cc(COc3ccccc3)nn2CCN1c1ccc(F)cn1 [4k] , respond with its concentration at 90 min. 313

---

# ASSAYED_TARGET: human mGlu5 (Homo sapiens)
# Sequence (P41594 21-1212): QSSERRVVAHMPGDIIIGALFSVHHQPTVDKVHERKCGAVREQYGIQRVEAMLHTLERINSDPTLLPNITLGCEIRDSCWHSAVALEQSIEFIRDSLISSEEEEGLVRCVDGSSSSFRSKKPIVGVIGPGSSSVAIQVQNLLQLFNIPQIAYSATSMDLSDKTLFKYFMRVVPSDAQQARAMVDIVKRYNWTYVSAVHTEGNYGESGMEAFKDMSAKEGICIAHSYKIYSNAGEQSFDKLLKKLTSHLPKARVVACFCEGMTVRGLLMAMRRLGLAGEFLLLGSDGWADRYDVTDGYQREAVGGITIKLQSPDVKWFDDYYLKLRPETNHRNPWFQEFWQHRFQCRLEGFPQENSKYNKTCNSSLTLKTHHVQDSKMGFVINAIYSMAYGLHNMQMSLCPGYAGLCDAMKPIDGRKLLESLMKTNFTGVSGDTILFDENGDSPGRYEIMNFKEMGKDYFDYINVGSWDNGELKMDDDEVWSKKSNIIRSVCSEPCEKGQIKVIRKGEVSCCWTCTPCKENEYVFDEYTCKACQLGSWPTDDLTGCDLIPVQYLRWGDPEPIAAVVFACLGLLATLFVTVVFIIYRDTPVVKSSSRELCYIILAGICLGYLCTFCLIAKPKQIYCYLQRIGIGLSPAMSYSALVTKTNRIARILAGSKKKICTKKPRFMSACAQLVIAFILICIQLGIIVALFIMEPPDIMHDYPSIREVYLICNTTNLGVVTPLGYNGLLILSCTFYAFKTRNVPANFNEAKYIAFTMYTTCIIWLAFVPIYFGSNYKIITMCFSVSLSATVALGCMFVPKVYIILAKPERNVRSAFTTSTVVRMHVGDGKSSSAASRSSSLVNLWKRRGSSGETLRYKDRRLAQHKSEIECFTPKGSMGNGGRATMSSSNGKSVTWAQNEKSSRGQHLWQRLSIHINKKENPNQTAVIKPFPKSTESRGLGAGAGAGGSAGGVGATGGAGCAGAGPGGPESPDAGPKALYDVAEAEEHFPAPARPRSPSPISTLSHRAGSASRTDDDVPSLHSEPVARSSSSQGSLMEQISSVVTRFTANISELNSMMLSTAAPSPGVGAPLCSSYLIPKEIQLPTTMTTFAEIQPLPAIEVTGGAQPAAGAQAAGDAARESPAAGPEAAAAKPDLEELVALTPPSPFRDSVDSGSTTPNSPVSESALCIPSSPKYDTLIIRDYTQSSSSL
# RUN_DESCRIPTION: Calcium mobilization assay, mGlu5 PAM activity
# Type: cell-based
# PROTOCOL_CONDITIONS: 4n vs 4k; 4x vs 4c; 4z vs unsubstituted -CH2-O- linker; 20 vs piperazinone core
ATTRIBUTE_MEASURED: decrease in mGlu5 potency versus comparator analog

The examples below pair each entry with its known result.
INSERT INTO measurements (molecule, endpoint_result) VALUES
  ('CC(Oc1ccccc1)c1cc2n(n1)CCN(c1ccc(F)cc1)C2=O (stereo not shown)', '> 100 fold'),
  ('O=C1c2cc(COc3ccccc3)nn2CCCN1c1ccc(F)cc1', '~ 3 fold'),
  ('O=C1c2cc(COc3ccccc3)nn2CCN1c1ncc(F)cn1', '~ 6 fold');

State its decrease in mGlu5 potency versus comparator analog: O=C1c2cc(OCc3ccccc3)nn2CCN1c1ccc(F)cc1 ~ 2.5 fold
